Can you tell me TGI for the items I'm about to list?
system: RPMI-8226 leukemia; experiment: NCI tumour cell line growth inhibition, 48 h

compound	readout label	measured
CCCCNC(=S)Nn1c(-c2ccccc2)nc2ccccc2c1=O	TGI	> 100 µM

Below are some compounds; for each one, tell me its TGI.
1. COc1c(-c2cc(C)c(Cl)c(=O)[nH]2)c(O)c(OC)c2occc12
2. CC(C)c1ccc2c(c1)CCC1C(C)(C)[C@@H](O)CC[C@]21C (some centres undefined)

1. > 100 µM
2. 52 µM

Below are some compounds; for each one, tell me its TGI.
1. CC(=O)Nc1ccc(S(=O)(=O)Nc2nnc(S(N)(=O)=O)s2)cc1
2. COC(=O)C1=CC(=O)C(C(=O)Nc2ccc(OC)cc2)C(c2ccccc2)O1 (centres undefined)
3. CC1CN(CCO)CC(C)O1 (centres undefined)
4. CCNc1nc(N)c(C(=O)c2ccc(Cl)cc2)s1

> 100 µM
> 100 µM
> 100 µM
> 100 µM

Below are some compounds; for each one, tell me its TGI.
1. COc1cc2c(cc1OC)C1CN3C(=O)CCC3C(O)C1c1cc(OC)c(OC)cc1-2 (centres undefined)
2. O=P(O)(O)OC1C(OP(=O)(O)O)C(OP(=O)(O)O)C(OP(=O)(O)O)C(OP(=O)(O)O)C1OP(=O)(O)O (centres undefined)

1. > 100 µM
2. > 2000 µM

====

system: SW-620 colon; assay: NCI tumour cell line growth inhibition, 48 h; in the data active means GI50 below about 0.43 µM; inactive means the rest
Tick one outcome: True = active, False = inactive

Please review the following examples before continuing.
compound	assigned category
COc1ccc(C(=O)/C=C/c2ccc(Cl)cc2)cc1S(N)(=O)=O	False
O=C1CCC/C=C\C[C@H]2C=C(Cl)C(=O)/C2=C/C[C@H](CCCCC(F)(F)F)OC(=O)CCC/C=C\C[C@H]2C=C(Cl)C(=O)/C2=C/C[C@H](CCCCC(F)(F)F)O1	True

For COc1cc([C@@H]2c3cc4c(cc3[C@H](OC3OC5COC(c6ccccc6)OC5C(O)C3O)[C@H]3COC(=O)[C@H]23)OCO4)cc(OC)c1OC (some centres undefined) , what call appears in the results of this test?
True

For CCN1CCN(C(=O)[C@]23CC[C@@H](C)[C@H](C)[C@@H]2C2=CC[C@@H]4[C@@]5(C)C/C(=C/c6cccnc6)C(=O)C(C)(C)[C@@H]5CC[C@@]4(C)[C@]2(C)CC3)CC1 , what call appears in the results of this test?
False

====

system: U251 CNS; experiment: NCI tumour cell line growth inhibition, 48 h
readout label: TGI (µM)
Numbers only, in µM.

molecule	TGI / µM
COc1cc([C@@H]2c3cc4c(cc3[C@H](OC3OC5COC(c6ccccc6)OC5C(O)C3O)[C@H]3COC(=O)[C@H]23)OCO4)cc(OC)c1OC (stereo partly drawn)	2.02

Below are some molecules; for each one, tell me its TGI.
1. N#Cc1c(N)nn(C(=O)c2ccc(NC(=O)c3ccccn3)cc2)c1-c1ccc(Cl)cc1
2. CCN(CC)CCN(C)CC(C)(C)C(=O)/C=C/c1ccccc1
3. FC(F)(F)c1ccc2nc(-c3nc(-c4ccccc4)n4ccccc34)[nH]c2c1

5.75
22.1
4.03

Below are some molecules; for each one, tell me its TGI.
1. O=C1NN=C(c2ccc(Cl)cc2)CC1C1C(=O)N(c2ccccc2)N=C1c1ccccc1 (stereo not drawn)
2. O=C1Cc2c(-c3ccc(Cl)cc3)cc(-c3ccccc3)nc2-c2ccccc2N1

1: 82.9; 2: 17.8

====

test system: SR leukemia; assay: NCI tumour cell line growth inhibition, 48 h
Can you tell me GI50 for the items I'm about to list?

Examples from the recorded data:
compound structure	experimental system	measured
CCc1nc(N)nc(N)c1-c1ccc(Cl)cc1	SR leukemia	18700 nM
COc1ccc(C(=O)c2cc3c(N)c(C(=O)Nc4cccc(Cl)c4)sc3nc2C)cc1	SR leukemia	1150 nM
Clc1ccc(Cl)c(N/N=C\c2c[nH]c3ccccc23)c1	SR leukemia	4140 nM

Consider the record given below.
Field request: GI50 | item: CC/C=C/[C@@H]1C=C[C@@H]2CCC[C@H]2[C@@H]1CC[C@H](O)[C@H](C)N
1390 nM

====

tested on: NCI/ADR-RES ovarian; experiment: NCI tumour cell line growth inhibition, 48 h
Can you tell me TGI for the items I'm about to list?
Numbers only, in µM.

compound structure	TGI, µM
FC(F)(F)c1ccc2nc(-c3nc(-c4ccccc4)n4ccccc34)[nH]c2c1	38.5

Consider the record given below.
Field request: TGI | item: Cc1cc(Cl)n2c(nc3ccccc32)c1C#N
8.74

====

Can you tell me TGI for the items I'm about to list?
test system: NCI-H23 lung; experiment: NCI tumour cell line growth inhibition, 48 h

compound	readout label	measured
CN(C)CCCn1cnc2ncccc2c1=O	TGI	> 100 µM
CC(C)NC(=O)OCc1nnn2c1C(OC(=O)NC(C)C)CC2 (stereo not given)	TGI	> 100 µM
Cc1c(CNc2ccc(Cl)c(C(=O)NC(CC(=O)O)C(=O)O)c2)ccc2nc(N)nc(N)c12 (stereo not given)	TGI	> 1000 µM

Below are some compounds; for each one, tell me its TGI.
1. Cc1ccc(CCC(=O)Nc2ncc(Cc3cc(Cl)ccc3Cl)s2)o1
2. CC1(C)C2CCC1(CS(=O)(=O)Nc1ccccc1)C(=O)C2 (stereo not given)

1: > 37.7 µM; 2: > 100 µM

====

test system: OVCAR-5 ovarian; assay: NCI tumour cell line growth inhibition, 48 h
readout label: TGI

compound	readout label	measured
Oc1ccc2c(c1)-c1c(c3cc(O)ccc3n1CCN1CCOCC1)CC2	TGI	> 100 µM
O=C(CC1Sc2ccccc2NC1=O)Nc1cccc(Cl)c1 (stereo not drawn)	TGI	> 100 µM
CCCC1NC(C#N)(C#N)C(CCC)NC1(C#N)C#N (stereo not drawn)	TGI	> 90.1 µM
CC(=O)NNc1nc(C)c(C(/C=C/c2ccc(/C=C/C(=N\NC(=O)c3ccncc3)c3sc(NNC(C)=O)nc3C)cc2)=N/NC(=O)c2ccncc2)s1	TGI	> 100 µM
CC(=O)O[C@@H]1C=CC(=O)C2(CC(=O)O[C@@H]2/C=C(\C)CCC=C(C)C)C1 (stereo partly drawn)	TGI	1.08 µM
CCOC(=O)c1c(SC(=O)c2cc(OC)c(OC)c(OC)c2)n(-c2ccccc2)c(=S)n(-c2ccccc2)c1=O	TGI	> 100 µM

Below are some compounds; for each one, tell me its TGI.
1. CCOC(=O)c1cnc2ccc(Cl)cc2c1NCCCN(C)C
2. CSc1nc2ccccc2c(=O)n1/N=C1\C(=O)N(CN2CCOCC2)c2ccc(Cl)cc21
3. N#Cc1c([N+](=O)[O-])cc(C(F)(F)F)cc1[N+](=O)[O-]
4. COc1ccc(/C=N\N2CC(=O)N3C4C=CC(CC4)N3C2=O)cc1 (stereo not drawn)
5. O=C1CCC/C=C\C[C@H]2C=C(Cl)C(=O)/C2=C/C[C@H](CCCCC(F)(F)F)OC(=O)CCC/C=C\C[C@H]2C=C(Cl)C(=O)/C2=C/C[C@H](CCCCC(F)(F)F)O1
6. COc1cc(Oc2nc3ccccc3nc2C(=O)O)cc(OC)c1OC
7. O=C(CCc1cccc(O)c1)NCCc1cccc(O)c1

1: > 100 µM; 2: > 100 µM; 3: 32.5 µM; 4: > 100 µM; 5: 2.08 µM; 6: > 100 µM; 7: > 100 µM

====

test system: TK-10 renal; assay: NCI tumour cell line growth inhibition, 48 h; in the data active = GI50 below about 0.43 µM; inactive = the rest
Tick one outcome: active, inactive

Please review the following examples before continuing.
compound structure	assigned category
COc1ccc(CN2CCc3c(Cl)nc(N)nc3C2=O)c(OC)c1	inactive
CCOC(=O)c1cnc2ccc(Cl)cc2c1NCCCN(C)C	inactive
Cc1cc2c(-c3nc4ccccc4[nH]3)c(O)c(O)cc2c(O)c1-c1c(C)cc2c(-c3nc4ccccc4[nH]3)c(O)c(O)cc2c1O	active

Next item in the queue.
For Cc1ccc(CCC(=O)Nc2ncc(Cc3cc(Cl)ccc3Cl)s2)o1 , what call appears in the results of this test?
inactive

====

Can you tell me TGI for the items I'm about to list?
tested on: HCC-2998 colon; assay: NCI tumour cell line growth inhibition, 48 h

compound	measured
Brc1ccc2c(-c3nc(-c4c[nH]c5ccccc45)cs3)c[nH]c2c1	> 100 µM
CC(C)(O)Cn1c(=O)c(Oc2ccc(F)cc2F)cc2cnc(NC3CCOCC3)nc21	> 25 µM
O=C(NCC1Nc2ccncc2S(=O)(=O)N1)c1ccc(Br)cc1 (stereo not drawn)	> 100 µM
COC(=O)C1=CC(=O)C(C(=O)Nc2ccc(OC)cc2)C(c2ccccc2)O1 (stereo not drawn)	> 78.7 µM
Cc1oc2nc1C(=O)NCc1nc(cs1)C(=O)N[C@H](C(C)C)c1nc(cs1)C(=O)N[C@H]2C	> 100 µM

Below are some compounds; for each one, tell me its TGI.
1. CC1(C)O[C@H](C(=O)O)[C@@H](C(=O)O)O1
2. COc1c2occc2c(OC)c2c(=O)c(S(=O)(=O)NC(=O)Nc3ccc(Cl)cc3)coc12
3. CCOC(=O)C1=CN=C2C(=O)N(c3ccccc3)N(C)C2(C)C1=N (stereo not drawn)
4. CCCCC1(N=[N+]=[N-])C(=O)c2cccc3c2N(CCC3)C1=O (stereo not drawn)
5. Cn1cc(-c2ccc3cc(-c4ccc(CC(=O)Nc5cc(C(C)(C)C)nn5C)cc4)cnc3c2)cn1

> 100 µM
> 10 µM
> 100 µM
> 100 µM
> 100 µM
